# System: S. aureus
# protocol: Minimum inhibitory concentrations (MICs) for S. aureus of exemplary compounds (Table 2)
# Format: cell-based
# condition: Staphylococcus aureus, minimum inhibitory concentrations for S. aureus; read-out: MICs
# Source text: Exemplary compounds in accordance with the invention are listed in Table 2 with their minimum inhibitory concentrations (MICs) (μg/mL) for S. aureus: Furthermore, the antibiotic compounds can be assayed for anti-proliferative or anti-infective properties on a cellular level. For example, where the target organism is a microorganism, the activity of compounds of interest can be assayed by growing the microorganisms of interest in media either containing or lacking the compound. […]
readout.kind: MIC
State the result as a value with its unit after it.

Field: example entries. Status: answers known.
>  <molecular.string>
CNc1nc(CNCc2ccc(-c3ccc(N4C[C@H](CNC(C)=O)OC4=O)cc3F)cc2)ns1

>  <MIC>
1 µg/mL

$$$$
>  <molecular.string>
CC(=O)NC[C@H]1CN(c2ccc(-c3ccc(CNCCCNc4ncc(C(F)(F)F)cc4Cl)cc3)c(F)c2)C(=O)O1

>  <MIC>
4 µg/mL

$$$$
>  <molecular.string>
CC(=O)NC[C@H]1CN(c2ccc(-c3ccc(CNC(=O)[C@@H]4CCCN4)cc3)c(F)c2)C(=O)O1

>  <MIC>
8 µg/mL

$$$$
>  <molecular.string>
CC(=O)NC[C@H]1CN(c2ccc(-c3ccc(CNCc4cnc[nH]4)cc3)c(F)c2)C(=O)O1

>  <MIC>
8 µg/mL

$$$$
>  <molecular.string>
CC(=O)NC[C@H]1CN(c2ccc(-c3ccc(S(=O)(=O)Cc4ccncc4)cc3)c(F)c2)C(=O)O1

>  <MIC>
2 µg/mL

$$$$

## Task // query MIC value for entry `CC(=O)NC[C@H]1CN(c2ccc(-c3ccc(CNC(=O)/C=C/c4cncnc4)cc3)c(F)c2)C(=O)O1`
## Result 8 µg/mL

## Task Looking for the measured MIC of `CC(=O)NC[C@H]1CN(c2ccc(-c3ccc(CNc4nc[nH]c4C(N)=O)cc3)c(F)c2)C(=O)O1` , can you help?
## Result 4 µg/mL
